The reported numbers originate from patent US10617679B2.

system: blood pressure in rats; experiment: Effects on blood pressure in rats; type: in vivo, SD rats; conditions: 40 mg/kg intragastric; time point 60
Measured Blood pressure, listed per entry.
Answer with a number only, understood to be in mmHg.

molecule	target.or.test.system	assay.value
[2H]C([2H])([2H])Oc1cc2c(cc1OC([2H])([2H])[2H])[C@@H]1Cc3ccc(OC([2H])([2H])[2H])c(OC([2H])([2H])[2H])c3CN1CC2	blood pressure in rats	83.5
[2H]C([2H])([2H])Oc1ccc2c(c1OC)CN1CCc3cc(OC)c(OC)cc3[C@@H]1C2	blood pressure in rats	82.5
[2H]C([2H])([2H])Oc1cc2c(cc1OC)CCN1Cc3c(ccc(OC([2H])([2H])[2H])c3OC)C[C@@H]21	blood pressure in rats	83.5

Respond only with Blood pressure recorded for COc1cc2c(cc1OC)[C@@H]1Cc3ccc(OC)c(OC)c3CN1CC2 [THP, L-tetrahydropalmatine, reference compound]
81.63

====

system: Wistar rats; experiment: Evaluation of subacute toxicity (14 days, intragastric); format: in vivo; details: 40 mg/kg intragastric once a day for 14 days; rat
attribute.measured: ALT (U/L)
Answer with a number only, understood to be in U/L.

Respond only with ALT recorded for [2H]C([2H])([2H])Oc1ccc2c(c1OC)CN1CCc3cc(OC)c(OC)cc3[C@@H]1C2 [Formula I2]
172.8

====

tested on: blood pressure in rats; assay: Effects on blood pressure in rats; format: in vivo, SD rats; details: 20 mg/kg intragastric; time point 180
Measured Blood pressure, listed per entry.
Answer with a number only, understood to be in mmHg.

Example cases with answers are listed next.
compound	units.text	Blood pressure
[2H]C([2H])([2H])Oc1cc2c(cc1OC)CCN1Cc3c(ccc(OC([2H])([2H])[2H])c3OC)C[C@@H]21	mmHg	106.5
[2H]C([2H])([2H])Oc1cc2c(cc1OC([2H])([2H])[2H])[C@@H]1Cc3ccc(OC([2H])([2H])[2H])c(OC([2H])([2H])[2H])c3CN1CC2	mmHg	135.3

Give measured Blood pressure for [2H]C([2H])([2H])Oc1ccc2c(c1OC)CN1CCc3cc(OC)c(OC)cc3[C@@H]1C2 (blood pressure in rats).
102.3

Give measured Blood pressure for COc1cc2c(cc1OC)[C@@H]1Cc3ccc(OC)c(OC)c3CN1CC2 [THP, L-tetrahydropalmatine, reference compound] (blood pressure in rats).
113.3

====

Measured Heart rate, listed per entry.
system: heart rate in rats; assay: Effects on heart rate in rats; assay type: in vivo, SD rats; conditions: 20 mg/kg intragastric; time point 90
Give the figure together with its unit, number first.

compound	Heart rate
[2H]C([2H])([2H])Oc1ccc2c(c1OC)CN1CCc3cc(OC)c(OC)cc3[C@@H]1C2	388.0 ± 21.4 BTM
[2H]C([2H])([2H])Oc1cc2c(cc1OC)CCN1Cc3c(ccc(OC([2H])([2H])[2H])c3OC)C[C@@H]21	403.0 ± 30.2 BTM
[2H]C([2H])([2H])Oc1cc2c(cc1OC([2H])([2H])[2H])[C@@H]1Cc3ccc(OC([2H])([2H])[2H])c(OC([2H])([2H])[2H])c3CN1CC2	405.3 ± 31.0 BTM

Alright, here's another compound for you.
Give measured Heart rate for COc1cc2c(cc1OC)[C@@H]1Cc3ccc(OC)c(OC)c3CN1CC2 [THP, L-tetrahydropalmatine, reference compound] (heart rate in rats).
399.8 ± 60.7 BTM
